Quick reference for kon among some binders
# MEASURED_ON: T1, commercial, recombinant extracellular domain of human BAFF-R (human, UniProt Q96RJ3 1-78)
# T1 construct: extracellular domain
# PROTOCOL: Biacore analysis; antibody as loading sample, recombinant human BAFF-R ECD as sample
The figure you give is taken to be in M⁻¹ s⁻¹; do not add the unit.

{"BINDER": "humanized C90 variant HC3 + LC2 (antibody, V domains shown, also called Humanized HC3 + LC2; Hu90 HC-3 with Hu90 LC-2) VH: EVQLQESGPGLVKPSETLSLTCSVSGDSITSGYWNWIRQPPGKGLEYIGYISYSGSTYYNPSLKSRVTISRDTSKNQYSLRLSSVTAADTALYYCASPNYPFYAMDYWGQGTRVTVSS VL: DIVLTQSPATLSLSPGERATLSCRASESVDNYGISFMNWFQQKPGQAPRLLIYAASNRATGIPARFSGSGSGTDFTLTISSLEPEDFAVYYCQQSKEVPWTFGGGTKVEIKR", "kon / M⁻¹ s⁻¹": "1.2e+06"}
{"BINDER": "humanized C90 variant HC3 + LC1 (antibody, V domains shown, also called Humanized HC3 + LC1; Hu90 HC-3 with Hu90 LC-1) VH: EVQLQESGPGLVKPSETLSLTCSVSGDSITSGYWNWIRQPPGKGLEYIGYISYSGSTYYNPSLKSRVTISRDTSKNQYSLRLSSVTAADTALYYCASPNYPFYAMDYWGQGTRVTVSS VL: EIVLTQSPATLSLSPGERATLSCRASESVDNYGISFLNWFQQKPGQAPRLLIYAASNRATGIPARFSGSGSGTDFTLTISSLEPEDFAVYYCQQSKEVPWTFGGGTKVEIKR", "kon / M⁻¹ s⁻¹": 820000}
{"BINDER": "humanized C90 variant HC1 + LC2 (antibody, V domains shown, also called Humanized HC1 + LC2; Hu90 HC-1 with Hu90 LC-2) VH: QVQLQESGPGLVKPSQTLSLTCTVSGDSITSGYWNWIRQHPGKGLEYIGYISYSGSTYYNPSLKSRVTISRDTSKNQFSLKLSSVTAADTAVYYCASPNYPFYAMDYWGQGTLVTVSS VL: DIVLTQSPATLSLSPGERATLSCRASESVDNYGISFMNWFQQKPGQAPRLLIYAASNRATGIPARFSGSGSGTDFTLTISSLEPEDFAVYYCQQSKEVPWTFGGGTKVEIKR", "kon / M⁻¹ s⁻¹": 620000}

So what's the measured kon for this one? humanized C90 variant HC2 + LC2 (antibody, V domains shown, also called Hu90 HC-2 with Hu90 LC-2) VH: EVQLQESGPGLVKPSQTLSLTCTVSGDSITSGYWNWIRQHPGKGLEYIGYISYSGSTYYNPSLKSRVTISRDTSKNQYSLKLSSVTAADTAVYYCASPNYPFYAMDYWGQGTLVTVSS VL: DIVLTQSPATLSLSPGERATLSCRASESVDNYGISFMNWFQQKPGQAPRLLIYAASNRATGIPARFSGSGSGTDFTLTISSLEPEDFAVYYCQQSKEVPWTFGGGTKVEIKR
610000

So what's the measured kon for this one? humanized C90 variant HC3 + LC3 (antibody, V domains shown, also called Humanized HC3 + LC3; Hu90 HC-3 with Hu90 LC-3) VH: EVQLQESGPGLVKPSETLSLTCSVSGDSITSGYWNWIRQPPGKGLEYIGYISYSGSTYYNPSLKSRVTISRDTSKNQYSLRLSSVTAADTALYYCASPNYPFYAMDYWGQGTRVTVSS VL: DIVMTQSPSSLSASVGDRVTITCRASESVDNYGISFMNWFQQKPGKAPKLLIYAASNLGSGVPSRFSGSGSGTDFTLTISSLQPEDFATYYCQQSKEVPWTFGQGTKVEIKR
680000
